B1: Triacylglycerol hydrolase DDHD2, residues 389 to 447; numbered along this chain, O94830 (parent)
chain: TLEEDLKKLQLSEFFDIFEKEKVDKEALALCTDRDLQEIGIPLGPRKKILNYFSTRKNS

- Variants of: B1
- Assay overview: abundance fitness (aPCA) (normalised: wild type 0, dead -1); higher = more abundant; growth selection in yeast, the domain comes from the species named
- Condition summary: Homo sapiens
Answer each item with its documented abundance fitness.
Keep it simple and answer with nothing but the number.

# return recorded abundance fitness for input L11Y
-1.15

# return recorded abundance fitness for input G44S
0.167

# return recorded abundance fitness for input T1M
-0.475

# return recorded abundance fitness for input D16R
0.049

# return recorded abundance fitness for input E21K
0.809

# return recorded abundance fitness for input L28K
-0.467

# return recorded abundance fitness for input C31N
-0.304

# return recorded abundance fitness for input D24Q
-0.044

# return recorded abundance fitness for input P45C
-0.205

# return recorded abundance fitness for input Y52S
-0.15

# return recorded abundance fitness for input D16L
-0.33

# return recorded abundance fitness for input D5N
-0.319

# return recorded abundance fitness for input P42G
-0.587

# return recorded abundance fitness for input A27L
-0.039

# return recorded abundance fitness for input L30V
0.329

# return recorded abundance fitness for input S54C
-0.285

# return recorded abundance fitness for input Q37W
-0.37

# return recorded abundance fitness for input F15C
-0.035

# return recorded abundance fitness for input L43F
0.313

# return recorded abundance fitness for input L11I
-0.257

# return recorded abundance fitness for input N58Y
-0.08

# return recorded abundance fitness for input R34K
-0.087

# return recorded abundance fitness for input I49P
-0.34

# return recorded abundance fitness for input T1R
-0.331

# return recorded abundance fitness for input L30I
0.513

# return recorded abundance fitness for input L30N
0.687

# return recorded abundance fitness for input K20L
-0.386

# return recorded abundance fitness for input T32V
-0.631

# return recorded abundance fitness for input L36N
-0.267

# return recorded abundance fitness for input G44C
-0.176

# return recorded abundance fitness for input I41M
0.134

# return recorded abundance fitness for input N58M
0.208

# return recorded abundance fitness for input Q37H
-0.229

# return recorded abundance fitness for input C31Y
0.626

# return recorded abundance fitness for input R56A
0.134

# return recorded abundance fitness for input E26A
-0.052

# return recorded abundance fitness for input L28R
-0.498

# return recorded abundance fitness for input F53G
-0.213

# return recorded abundance fitness for input F15T
0.112

# return recorded abundance fitness for input E13W
-1.45

# return recorded abundance fitness for input R56P
0.084

# return recorded abundance fitness for input K20S
-0.332

# return recorded abundance fitness for input P45Q
0.188

# return recorded abundance fitness for input F14L
0

# return recorded abundance fitness for input L2E
-0.2

# return recorded abundance fitness for input D24S
0.466

# return recorded abundance fitness for input R46N
-0.152

# return recorded abundance fitness for input L30W
0.263

# return recorded abundance fitness for input E26D
0.002

# return recorded abundance fitness for input D33G
-0.199

# return recorded abundance fitness for input P42F
-1.17

# return recorded abundance fitness for input G40E
-0.556

# return recorded abundance fitness for input L50W
-0.585

# return recorded abundance fitness for input E38D
0.067

# return recorded abundance fitness for input Y52K
-0.3

# return recorded abundance fitness for input L11C
-0.462

# return recorded abundance fitness for input F15R
-0.077

# return recorded abundance fitness for input R56M
0.095

# return recorded abundance fitness for input T55V
-0.152

# return recorded abundance fitness for input K20Q
-0.317

# return recorded abundance fitness for input I39Y
0.548

# return recorded abundance fitness for input I41R
-0.289

# return recorded abundance fitness for input E19C
-0.161

# return recorded abundance fitness for input R46V
-0.52

# return recorded abundance fitness for input T32A
-0.226

# return recorded abundance fitness for input R46A
0.45

# return recorded abundance fitness for input K25P
-0.048

# return recorded abundance fitness for input E21M
0.86

# return recorded abundance fitness for input C31K
0.489

# return recorded abundance fitness for input D5I
-0.144

# return recorded abundance fitness for input Y52W
-0.089

# return recorded abundance fitness for input P45T
-0.031

# return recorded abundance fitness for input D5T
0.15

# return recorded abundance fitness for input E4H
-0.33

# return recorded abundance fitness for input F53T
-0.247

# return recorded abundance fitness for input E13Q
-0.215

# return recorded abundance fitness for input L2W
-0.52

# return recorded abundance fitness for input K57W
-0.525

# return recorded abundance fitness for input A27S
-0.096

# return recorded abundance fitness for input K7E
-0.017

# return recorded abundance fitness for input K47S
0.225

# return recorded abundance fitness for input F53I
-0.085

# return recorded abundance fitness for input N51K
0.044

# return recorded abundance fitness for input A27G
0.316

# return recorded abundance fitness for input P45Y
-0.426

# return recorded abundance fitness for input L50M
-0.209

# return recorded abundance fitness for input E21D
-0.275

# return recorded abundance fitness for input C31Q
-0.145

# return recorded abundance fitness for input S59T
-0.085

# return recorded abundance fitness for input E19T
0.023

# return recorded abundance fitness for input Q37Y
-0.232

Every entry's value here was drawn from the Human Domainome abundance scans (Beltran et al. 2025).
